// reported Ragweed plant response rating for each item listed
- System: common ragweed
- measurement notes: Test C pre-/postemergence test
- Assay type: in vivo, Ambrosia elation
- condition label: 125 g ai/ha, preemergence; scale 0 (no effect) to 100 (complete control)
Reply briefly: the number, and no unit.

[
  {
    "molecule": "CC(Oc1c(C[S+]([O-])c2cccc[n+]2[O-])c(C(F)(F)F)nn1C)C(F)(F)F (stereo not shown) [Compound 77]",
    "Ragweed plant response rating": 100
  },
  {
    "molecule": "Cn1nc(C(F)(F)C(F)(F)F)c(C[S+]([O-])c2cccc[n+]2[O-])c1OCC(F)(F)F (stereo not shown) [Compound 79]",
    "Ragweed plant response rating": 100
  },
  {
    "molecule": "Cc1cc[n+]([O-])c(S(=O)(=O)C(Cl)c2c(C(F)(F)F)nn(C)c2OCC(F)(F)F)c1 (racemic) [Compound 37]",
    "Ragweed plant response rating": 70
  },
  {
    "molecule": "Cn1nc(C(F)(F)F)c(C[S+]([O-])c2ccc(Cl)c[n+]2[O-])c1OCC(F)F (stereo not shown) [Compound 85]",
    "Ragweed plant response rating": 100
  }
]

What does the record list as Ragweed plant response rating for [O-][n+]1cc(Cl)ccc1[S+]([O-])Cc1c(C(F)(F)F)nn(CC(F)(F)F)c1Cl (stereo not shown) [Compound 47] ?
5

What does the record list as Ragweed plant response rating for CCn1nc(C(F)(F)F)c(C[S+]([O-])c2cccc[n+]2[O-])c1OCC(F)(F)F (racemic) [Compound 65] ?
100

What does the record list as Ragweed plant response rating for CC(Oc1c(C[S+]([O-])c2ccc(Cl)c[n+]2[O-])c(C(F)(F)F)nn1C)C(F)(F)F (stereo not shown) [Compound 87] ?
70

----------
- Test system: woolly cupgrass
- measurement notes: Test C pre-/postemergence test
- Type: in vivo, Eriochloa villosa
- condition label: Preemergence, 250 g ai/ha
measured property: Plant response rating (0 to 100), Cupgrass, Woolly

The examples below pair each entry with its known result.
[
  {
    "compound": "Cn1nc(C(F)(F)F)c(CS(=O)(=O)c2ccc(Cl)c[n+]2[O-])c1OC(F)F",
    "value": 100
  },
  {
    "compound": "Cn1nc(C(F)(F)F)c(CS(=O)(=O)c2cc(C(C)(C)C)cc[n+]2[O-])c1OC(F)F",
    "value": 100
  },
  {
    "compound": "Cn1nc(C(F)(F)F)c(C[S+]([O-])c2ccc(Br)c[n+]2[O-])c1OC(F)F (racemic)",
    "value": 100
  }
]

What does the record list as Plant response rating (0 to 100), Cupgrass, Woolly for CC(c1c(C(F)(F)F)nn(C)c1OC(F)F)S(=O)(=O)c1cc(C(C)(C)C)cc[n+]1[O-] (racemic) ?
98

What does the record list as Plant response rating (0 to 100), Cupgrass, Woolly for Cn1nc(C(F)(F)F)c(C[S+]([O-])c2ccc(Cl)c[n+]2[O-])c1OC(F)F (stereo not shown) ?
100

What does the record list as Plant response rating (0 to 100), Cupgrass, Woolly for Cn1nc(C(F)(F)F)c(C[S+]([O-])c2cc(C(C)(C)C)cc[n+]2[O-])c1OC(F)F (racemic) ?
100

What does the record list as Plant response rating (0 to 100), Cupgrass, Woolly for Cn1nc(C(F)(F)F)c(C(Cl)S(=O)(=O)c2cccc[n+]2[O-])c1Cl (stereo not shown) ?
100

Cited source for all entries: patent US20100298141A1
